Tested on: Tov-21-G
Assay: Primary qHTS to identify gynecologic anti-cancer compounds using libraries of approved drugs and bioactive compounds (AID 1345084); also: nearly all actives have a fitted effect of over 55% in size
Conditions: Gynecologic cancer cell panel viability, ATPlite luminescence, 48 h; series mostly up to 57.5 µM
Text: National Center for Advancing Translational Sciences [NCATS] Assay Overview: Chemotherapeutic drug responses vary from cancer to cancer and from patient to patient. […] ATPlite is a luminescence based assay reliant on the conversion of a luciferase substrate to light in the presence of ATP. As a cytotoxic compound will suppress growth and decrease the number of cells, the concentration of ATP will decrease, and less light signal will be detected in the well. […]
Records with an inconclusive call do not appear. Active and inactive are the calls of the source. Calls follow the shape of the dose curve; as a rule, active = well fitted cell-killing curve with a large enough effect; inconclusive = small, poorly fitted or top-dose-only effect, or effect the other way; inactive = flat fitted curve, though single readings scatter.
Possible outcomes: active, inactive

compound	measured_on	class_assignment
FC(F)(F)c1cc(-c2ncn(/C=C\c3nnco3)n2)cc(C(F)(F)F)c1	Tov-21-G	inactive
O=C(Nc1ccn[nH]1)c1c(F)cccc1F	Tov-21-G	inactive
COc1ccc(CC2NCCc3c2[nH]c2ccc(C)cc32)cc1OC (stereo not given)	Tov-21-G	inactive
CCOCc1nc2c(N)nc3ccccc3c2n1CC(C)(C)O	Tov-21-G	inactive
CC(C)c1ccc(CO)cc1O[C@@H]1O[C@H](CO)[C@@H](O)[C@H](O)[C@H]1O	Tov-21-G	inactive
Nc1nc2c(c(N3CCNCC3)n1)CCC1=C2[C@@H]2CCCC[C@@H]2O1	Tov-21-G	inactive
CC1(C)CC2C=C(C(=O)O)C3COC(=O)C(O)(CO)C23C1 (stereo not given)	Tov-21-G	inactive
C[C@]12C=C[C@@]3(CCC4[C@](C)(CO)CCC[C@@]4(C)C3CC1)C2 (stereo not given in full)	Tov-21-G	inactive
CC(O)/C=C/C1(O)C(C)C(O[C@@H]2O[C@H](CO)[C@@H](O)[C@H](O)[C@H]2O)C(O)CC1(C)C (stereo not given in full)	Tov-21-G	inactive
CC1C(=O)CC2C3CCC(C(=O)O)C12CC3(C)CO (stereo not given)	Tov-21-G	inactive
CC(C)(C)c1ccc(S(=O)(=O)Nc2ccc(Cl)cc2C(=O)c2cc[n+]([O-])cc2)cc1	Tov-21-G	inactive
CCC(O)(C(=O)OCc1ccccc1NC(=O)CCC(=O)O)C(C)O (stereo not given)	Tov-21-G	inactive
C=CC1(C)C=C2CCC3C(C)(C)C(O[C@@H]4O[C@@H](CO)[C@H](O)[C@H]4O)CCC3(C)C2CC1O[C@@H]1O[C@H](C)[C@H](O)[C@H](O)[C@H]1O (stereo not given in full)	Tov-21-G	inactive
CC(C)CCC1(O)C(=O)C(C)(C)C(O[C@@H]2O[C@H](CO)[C@@H](O)[C@H](O)[C@H]2O)C(C)(C)C1O (stereo not given in full)	Tov-21-G	inactive
CC(=O)O[C@@](C)(C(=O)/C=C/C(C)(C)O)[C@H]1[C@H](O)C[C@@]2(C)[C@@H]3CC=C4[C@@H](C=C(O)C(=O)C4(C)C)[C@]3(C)C(=O)C[C@]12C	Tov-21-G	active
